Test system: HOP-62 NSCLC
Experiment: NCI-60 one-dose screen, 48 h (100 = growth as untreated, 0 = no growth, -100 = all killed)
Conditions: 10 µM unless noted
Procedure: Growth inhibition of the HOP-62 human Non-Small Cell Lung tumor cell line is measured as a screen for anti-cancer activity. Cells are grown in 96 well plates and exposed to the test compound for 48 hours. Compounds are tested at a single concentration, which is 10^-5 M for most compounds. The reported endpoint is percent growth (GI% or GIPRCNT), where numbers from 0 - 100% represent growth inhibition, and numbers from -100% - 0 represent cell death. […]
Compounds without any hit were thinned out: in the full panel of roughly 83,000, 20% have a hit. Activity calls are given as the source filed them. Rule for the calls: active = growth percent below 10; inactive = the rest.
Reported growth values follow for various molecules
assay.readout: growth

- CN(C)CCOC(=O)Nc1ccc(Cl)cc1: 88.4% (inactive)
- O=C(CC12CC3CC(CC(C3)C1)C2)NCCOCCOCCNC(=O)c1cc2c(o1)C(=O)c1ccccc1C2=O: -58.3% (active)
- CCCCN(CCCC)CCCn1c(=O)c2sc3ncccc3c2n2nnc(-c3ccccc3)c12: 105% (inactive)
- CCCNCC(=O)Nc1ccc(C(=O)OC(C)(C)CC)cc1: 99.7% (inactive)
- Cc1cn(C2CCCCC2)c(=O)[nH]c1=O: 109% (inactive)
- N#Cc1c(-c2ccccc2)nc(SCC2CO2)nc1N1CCOCC1 (stereo unspecified): 54.3% (inactive)
- O=C(Nc1ccc(N2CCCCC2)c(Cl)c1)c1ccc(Br)o1: 109% (inactive)
- C=C(C)C1CCC(=C)C2CCC3(C)OC12/C=C(/COC(C)=O)CCC3O (stereo unspecified): 103% (inactive)
- CN(C)c1ccc(/C=C2\C=C(c3ccccc3)N(CCc3ccccc3)C2=O)cc1: -14% (active)
- Cc1c(C(=O)O)nnn1-c1nccs1: 84.1% (inactive)
- Cc1c(C(N)=O)sc2nc(C)n(/N=c3\scc(-c4ccccc4)n3Cc3ccccc3)c(=O)c12: 24.2% (inactive)

Reference for the values: PubChem BioAssay (NCI)
